These measurements were taken from the supplement of paper PMC10567573.

B1: GLTSCR2 (parent)
chain: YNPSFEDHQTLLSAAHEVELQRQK

- Variants of: B1
- testDetails: protein stability index of a GFP-peptide fusion (GPS, HEK-293T) (PSI 1-6); higher = more stable;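 note: lentivirally expressed fusions sorted by FACS into six bins by GFP to DsRed ratio, PSI derived from sequencing read proportions per bin multiplied by bin number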
- conditionContext: c terminus: a fixed tail appended
protein stability index for assorted variants
testReadout: protein stability index

1) YNPSFEDRQTLLSAAHEVELQRQK [H8R] :: 3.66
2) YNPSFEDHQTLLSAAHEVEEQRQK [L20E] :: 4.54
3) YNPWFEDHQTLLSAAHEVELQRQK [S4W] :: 3.67
4) YNPSFEDHQTLQSAAHEVELQRQK [L12Q] :: 4.2
5) YNPSFEDHQTNLSAAHEVELQRQK [L11N] :: 4.96
6) YNPSFEDHQTLLSAAHIVELQRQK [E17I] :: 3.03
7) YNPSFEDHQTLLSAAHEVELIRQK [Q21I] :: 3.26
8) YNPSFEDHKTLLSAAHEVELQRQK [Q9K] :: 3.12
9) YNPSYEDHQTLLSAAHEVELQRQK [F5Y] :: 3.68
10) YNPSFEDSQTLLSAAHEVELQRQK [H8S] :: 4.2
11) YNPSFEDHQTLLMAAHEVELQRQK [S13M] :: 3.08
12) YNPSFEDHQTLLSKAHEVELQRQK [A14K] :: 3.92
13) YNPSFEDHQTLLSAAHEVELQSQK [R22S] :: 3.9
14) YNPSFEDHQTLLSAHHEVELQRQK [A15H] :: 3.56
15) YNPSFEDHQTLTSAAHEVELQRQK [L12T] :: 4.62
16) YNPSFEDHQTLLSAAHEVELSRQK [Q21S] :: 3.96
17) YNPSFEDHQTLLSGAHEVELQRQK [A14G] :: 3.52
18) YNPSFEDHQTLLSAAHEVELTRQK [Q21T] :: 3.44
19) YNPSFEDHQTLLWAAHEVELQRQK [S13W] :: 1.51
20) YNPSFEDHQALLSAAHEVELQRQK [T10A] :: 3.39
21) YNPSFEDHQTLLSAAHEMELQRQK [V18M] :: 3.65
22) YNPSFEDHQTLLSWAHEVELQRQK [A14W] :: 2.51
